Reported values of metabolic stability in human liver microsomes CLint for individual entries
CONDITION: microsomes, pH 7.4
MEASURED_QUANTITY: metabolic stability in human liver microsomes CLint (mL/min/mg protein)

STRUCTURE_AS_SMILES: CCN(CC)CCC(=O)Nc1ccccc1Sc1cc(Cl)ccc1[N+](=O)[O-]
ENDPOINT_UNIT: mL/min/mg protein
MEASURED_RESULT: 36
--
STRUCTURE_AS_SMILES: O=C(CCN1CCCC1)Nc1ccccc1Sc1cc(Cl)ccc1[N+](=O)[O-]
ENDPOINT_UNIT: mL/min/mg protein
MEASURED_RESULT: 12.5
--
STRUCTURE_AS_SMILES: CCN(CC)CCC(=O)Nc1ccccc1Nc1cc(Cl)ccc1[N+](=O)[O-]
ENDPOINT_UNIT: mL/min/mg protein
MEASURED_RESULT: 9.1
--
STRUCTURE_AS_SMILES: O=C(CNCCC1CCN(Cc2ccccc2)CC1)Nc1ccccc1Sc1cc(Cl)ccc1[N+](=O)[O-]
ENDPOINT_UNIT: mL/min/mg protein
MEASURED_RESULT: 25
--
STRUCTURE_AS_SMILES: O=C(CNCCC1CCN(Cc2ccccc2)CC1)Nc1ccccc1Nc1cc(Cl)ccc1[N+](=O)[O-]
ENDPOINT_UNIT: mL/min/mg protein
MEASURED_RESULT: 12
--
STRUCTURE_AS_SMILES: O=C(CCN1CCCC1)Nc1ccccc1Nc1cc(Cl)ccc1[N+](=O)[O-]
ENDPOINT_UNIT: mL/min/mg protein
MEASURED_RESULT: 4.19

====

CONDITION: CD-1, mouse, pH 7.4
Label true when metabolic stability in mouse liver microsomes CLint is strictly below 300 mL/min/mg protein; otherwise label false.

MOLECULE: CCN(CC)CCC(=O)Nc1ccccc1Sc1cc(Cl)ccc1[N+](=O)[O-] [compound 13]
CLASS_LABEL: false

MOLECULE: CCN(CC)CCC(=O)Nc1ccccc1Nc1cc(Cl)ccc1[N+](=O)[O-] [compound 18]
CLASS_LABEL: true

MOLECULE: O=C(CCN1CCCC1)Nc1ccccc1Nc1cc(Cl)ccc1[N+](=O)[O-] [compound 17]
CLASS_LABEL: true

MOLECULE: O=C(CCN1CCCC1)Nc1ccccc1Sc1cc(Cl)ccc1[N+](=O)[O-] [compound 12]
CLASS_LABEL: true

MOLECULE: O=C(CNCCC1CCN(Cc2ccccc2)CC1)Nc1ccccc1Sc1cc(Cl)ccc1[N+](=O)[O-] [compound 11]
CLASS_LABEL: false

MOLECULE: O=C(CNCCC1CCN(Cc2ccccc2)CC1)Nc1ccccc1Nc1cc(Cl)ccc1[N+](=O)[O-] [compound 16]
CLASS_LABEL: false

====

We begin with a simple list: items and their reported inhibition at 10 µM.
System: EBOV-GP-pseudotype virus (pEBOV)
EXPERIMENTAL_PROTOCOL: microbe, parasite or virus in culture
CONDITION: Zaire ebolavirus, Vero C1008, read-out: %inh@10 μM (pEBOV)
MEASURED_QUANTITY: inhibition at 10 µM (%)

STRUCTURE_AS_SMILES: CCN(CC)CC(=O)Nc1ccccc1Sc1cc(Cl)ccc1[N+](=O)[O-]
MEASURED_QUANTITY: inhibition at 10 µM
RELATION_OPERATOR: =
MEASURED_RESULT: -5
--
STRUCTURE_AS_SMILES: O=C(CCNCCC1CCN(Cc2ccccc2)CC1)Nc1ccccc1Sc1cc(Cl)ccc1[N+](=O)[O-]
MEASURED_QUANTITY: inhibition at 10 µM
RELATION_OPERATOR: <
MEASURED_RESULT: 75
--
STRUCTURE_AS_SMILES: O=C(CN1CCCC1)Nc1ccccc1Sc1cc(Cl)ccc1[N+](=O)[O-]
MEASURED_QUANTITY: inhibition at 10 µM
RELATION_OPERATOR: =
MEASURED_RESULT: -2
--
STRUCTURE_AS_SMILES: O=C(CCNCCc1ccccc1)Nc1ccccc1Sc1cc(Cl)ccc1[N+](=O)[O-]
MEASURED_QUANTITY: inhibition at 10 µM
RELATION_OPERATOR: =
MEASURED_RESULT: 23
--
STRUCTURE_AS_SMILES: O=C(CN1CCCCC1)Nc1ccccc1Sc1cc(Cl)ccc1[N+](=O)[O-]
MEASURED_QUANTITY: inhibition at 10 µM
RELATION_OPERATOR: =
MEASURED_RESULT: -10
--
STRUCTURE_AS_SMILES: O=C(CNCc1ccccc1)Nc1ccccc1Sc1cc(Cl)ccc1[N+](=O)[O-]
MEASURED_QUANTITY: inhibition at 10 µM
RELATION_OPERATOR: =
MEASURED_RESULT: 18
--
STRUCTURE_AS_SMILES: O=C(CCNCCc1ccccc1)Nc1ccccc1Nc1cc(Cl)ccc1[N+](=O)[O-]
MEASURED_QUANTITY: inhibition at 10 µM
RELATION_OPERATOR: =
MEASURED_RESULT: 15

====

EXPERIMENTAL_PROTOCOL: in vitro
CONDITION: human, microsomes, pH 7.4
So basically: is half-life at 10 µM under 20 min? Then true. Not under? Then false.

STRUCTURE_AS_SMILES: O=C(CCN1CCCC1)Nc1ccccc1Nc1cc(Cl)ccc1[N+](=O)[O-]
CLASS_LABEL: false
//
STRUCTURE_AS_SMILES: O=C(CNCCC1CCN(Cc2ccccc2)CC1)Nc1ccccc1Nc1cc(Cl)ccc1[N+](=O)[O-]
CLASS_LABEL: false
//
STRUCTURE_AS_SMILES: O=C(CCN1CCCC1)Nc1ccccc1Sc1cc(Cl)ccc1[N+](=O)[O-]
CLASS_LABEL: false
//
STRUCTURE_AS_SMILES: CCN(CC)CCC(=O)Nc1ccccc1Sc1cc(Cl)ccc1[N+](=O)[O-]
CLASS_LABEL: true
//
STRUCTURE_AS_SMILES: O=C(CNCCC1CCN(Cc2ccccc2)CC1)Nc1ccccc1Sc1cc(Cl)ccc1[N+](=O)[O-]
CLASS_LABEL: false
//
STRUCTURE_AS_SMILES: CCN(CC)CCC(=O)Nc1ccccc1Nc1cc(Cl)ccc1[N+](=O)[O-]
CLASS_LABEL: false

====

SI (CC50/EC50), replicative EBOV, wild-type EBOV (Orthoebolavirus zairense, Mayinga variant): measured values
MEASURED_QUANTITY: SI (CC50/EC50), replicative EBOV

STRUCTURE_AS_SMILES: O=C(CCN1CCCC1)Nc1ccccc1Nc1cc(Cl)ccc1[N+](=O)[O-]
MEASURED_RESULT: 38.5
--
STRUCTURE_AS_SMILES: CCN(CC)CCC(=O)Nc1ccccc1Sc1cc(Cl)ccc1[N+](=O)[O-]
MEASURED_RESULT: 3.3
--
STRUCTURE_AS_SMILES: CCN(CC)CCC(=O)Nc1ccccc1Nc1cc(Cl)ccc1[N+](=O)[O-]
MEASURED_RESULT: 5.2
--
STRUCTURE_AS_SMILES: O=C(CN1CCCC1)NNc1ccccc1Sc1cc(Cl)ccc1[N+](=O)[O-]
MEASURED_RESULT: 18.6
--
STRUCTURE_AS_SMILES: O=C(CNCCC1CCN(Cc2ccccc2)CC1)Nc1ccccc1Sc1cc(Cl)ccc1[N+](=O)[O-]
MEASURED_RESULT: 28.8
--
STRUCTURE_AS_SMILES: CCN(CC)CC(=O)NNc1ccccc1Sc1cc(Cl)ccc1[N+](=O)[O-]
MEASURED_RESULT: 8.3

====

EXPERIMENTAL_PROTOCOL: in vitro
CONDITION: CD-1, mouse, microsomes, pH 7.4
Think of 10 min as a floor: if half-life at 10 µM stands on it or above, it is Y; beneath it, N.

COMPOUND: O=C(CNCCC1CCN(Cc2ccccc2)CC1)Nc1ccccc1Nc1cc(Cl)ccc1[N+](=O)[O-] [compound 16]
CLASS_LABEL: N

COMPOUND: CCN(CC)CCC(=O)Nc1ccccc1Sc1cc(Cl)ccc1[N+](=O)[O-] [compound 13]
CLASS_LABEL: N

COMPOUND: O=C(CCN1CCCC1)Nc1ccccc1Nc1cc(Cl)ccc1[N+](=O)[O-] [compound 17]
CLASS_LABEL: Y

COMPOUND: CCN(CC)CCC(=O)Nc1ccccc1Nc1cc(Cl)ccc1[N+](=O)[O-] [compound 18]
CLASS_LABEL: Y

COMPOUND: O=C(CNCCC1CCN(Cc2ccccc2)CC1)Nc1ccccc1Sc1cc(Cl)ccc1[N+](=O)[O-] [compound 11]
CLASS_LABEL: N

====

CONDITION: PAMPA

COMPOUND: CCn1cc(C(=O)O)c(=O)c2cc(F)c(N3CCNCC3)nc21 [Enoxacin, reference compound]
prediction of CNS penetration: CNS−

COMPOUND: CCN(CC)CCC(=O)Nc1ccccc1Nc1cc(Cl)ccc1[N+](=O)[O-]
prediction of CNS penetration: SNC +

COMPOUND: Cn1c(=O)c2c(ncn2C)n(C)c1=O [Caffeine, reference compound]
prediction of CNS penetration: CNS−

COMPOUND: CN1C(C(=O)Nc2ccccn2)=C(O)c2ccccc2S1(=O)=O [Piroxicam, reference compound]
prediction of CNS penetration: CNS−

COMPOUND: O=C(CNCCC1CCN(Cc2ccccc2)CC1)Nc1ccccc1Nc1cc(Cl)ccc1[N+](=O)[O-]
prediction of CNS penetration: SNC +

COMPOUND: O=C(CNCCC1CCN(Cc2ccccc2)CC1)Nc1ccccc1Sc1cc(Cl)ccc1[N+](=O)[O-]
prediction of CNS penetration: SNC +

COMPOUND: O=C(CCN1CCCC1)Nc1ccccc1Nc1cc(Cl)ccc1[N+](=O)[O-]
prediction of CNS penetration: SNC +

COMPOUND: O=C(CN1CCCC1)NNc1ccccc1Sc1cc(Cl)ccc1[N+](=O)[O-]
prediction of CNS penetration: SNC +

COMPOUND: O=C(CCN1CCCC1)Nc1ccccc1Sc1cc(Cl)ccc1[N+](=O)[O-]
prediction of CNS penetration: SNC +

COMPOUND: CN(C)CCCN1c2ccccc2Sc2ccccc21 [Promazine, reference compound]
prediction of CNS penetration: CNS+

COMPOUND: CCN(CC)CCC(=O)Nc1ccccc1Sc1cc(Cl)ccc1[N+](=O)[O-]
prediction of CNS penetration: SNC +

COMPOUND: CCN(CC)CC(=O)NNc1ccccc1Sc1cc(Cl)ccc1[N+](=O)[O-]
prediction of CNS penetration: SNC +

Every entry's value here was drawn from paper PMC12169679.
